Values from patent US20070026059A1

Provide the reported pEC50 of each item.
Tested System: SF-1 LBD / TIF2 co-activator motif interaction (Mus musculus, UniProt P33242)
Construct: The mouse SF1 LBD (residues 221-462) was expressed as a 6×His fusion protein
Sequence (P33242 221-462): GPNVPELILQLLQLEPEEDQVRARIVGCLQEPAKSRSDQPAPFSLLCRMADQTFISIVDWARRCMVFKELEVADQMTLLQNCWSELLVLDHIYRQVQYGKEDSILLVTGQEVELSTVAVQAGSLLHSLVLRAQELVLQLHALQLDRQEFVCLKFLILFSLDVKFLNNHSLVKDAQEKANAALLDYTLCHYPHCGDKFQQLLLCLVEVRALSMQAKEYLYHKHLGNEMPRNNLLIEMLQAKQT
Protocol Notes: AlphaScreen assay of SF-1 binding to TIF2 co-activator LxxLL motif in absence or presence of phospholipids
Condition Details: in the presence of 10% ethanol, FIG. 5E; read-out: potency (EC50) for recovering the SF-1/TIF2 binding activity
The scale used: pEC50 is minus the common logarithm of the concentration in molar units.

Entry CCCCCCCCCCCC(=O)OC[C@H](COP(=O)(O)OCCN)OC(=O)CCCCCCCCCCC [12PE] ; pEC50 = 7.18

Record CCCCCCCCCCCCCC(=O)OC[C@H](COP(=O)(O)OCCN)OC(=O)CCCCCCCCCCCCC [14PE] . Reported pEC50: 7.19
